Ref: ChEMBL document CHEMBL4190375

- Assay Target: Serine/threonine-protein kinase B-raf (Homo sapiens, UniProt P15056, V600E)
- Sequence (P15056 2-766 V600E limits assumed): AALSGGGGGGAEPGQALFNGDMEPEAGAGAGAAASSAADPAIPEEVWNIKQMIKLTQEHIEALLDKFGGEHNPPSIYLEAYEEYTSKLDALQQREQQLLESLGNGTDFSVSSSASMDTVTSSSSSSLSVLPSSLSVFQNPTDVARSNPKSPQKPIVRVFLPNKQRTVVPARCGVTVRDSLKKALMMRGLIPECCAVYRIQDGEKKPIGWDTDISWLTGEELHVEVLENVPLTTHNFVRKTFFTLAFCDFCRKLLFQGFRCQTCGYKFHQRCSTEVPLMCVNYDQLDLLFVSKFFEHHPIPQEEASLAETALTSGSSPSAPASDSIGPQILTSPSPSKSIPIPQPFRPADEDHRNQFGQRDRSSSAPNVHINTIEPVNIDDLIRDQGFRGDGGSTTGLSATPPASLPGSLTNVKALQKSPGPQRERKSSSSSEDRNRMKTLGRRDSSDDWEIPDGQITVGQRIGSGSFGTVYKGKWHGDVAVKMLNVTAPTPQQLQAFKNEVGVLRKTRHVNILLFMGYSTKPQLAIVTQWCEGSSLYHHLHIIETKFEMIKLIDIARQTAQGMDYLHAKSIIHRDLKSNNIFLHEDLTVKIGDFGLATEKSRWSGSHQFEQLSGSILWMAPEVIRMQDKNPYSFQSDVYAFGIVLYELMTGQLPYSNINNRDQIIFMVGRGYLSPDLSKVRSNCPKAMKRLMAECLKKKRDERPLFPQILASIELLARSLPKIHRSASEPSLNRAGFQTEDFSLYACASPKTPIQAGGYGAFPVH
- Procedure Details: Inhibition of BRAF V600E mutant (unknown origin)
Endpoint Name: IC50 (nM)
Write down the numeric answer in nM and omit the unit.

{"columns": ["Compound", "Assay Target", "IC50, nM"],
 "data": [
  ["CSc1cc(Oc2ccnc3[nH]c(=O)cnc23)ccc1NC(=O)Nc1cc(C(C)(C)C)nn1-c1ccccc1", "Serine/threonine-protein kinase B-raf (Homo sapiens, UniProt P15056, V600E)", 15],
  ["CC(C)(C)c1cc(NC(=O)Nc2ccc(Oc3ccnc4[nH]c(=O)cnc34)cc2F)n(-c2ccccc2)n1", "Serine/threonine-protein kinase B-raf (Homo sapiens, UniProt P15056, V600E)", 40]
]}

// next entry
Value lookup for IC50; key = COC(=O)Nc1nc2cc(C3(O)c4ccccc4C(=O)N3c3cc(Cl)ccc3C)ccc2[nH]1 (stereo not drawn) [XL-281]
6

----------
- Assay Target: Serine/threonine-protein kinase B-raf (Homo sapiens, UniProt P15056, V600E)
- Procedure Details: Inhibition of BRAF V600E mutant in human A375 cells assessed as reduction in ERK phosphorylation after 2 hrs by ELISA
- Assay type: cell-based
Endpoint Name: pIC50
Bear in mind: pIC50 is minus log10 of a mol/L concentration; give just that figure.

So what pIC50 did `CCCS(=O)(=O)Nc1ccc(F)c(-n2cc(-c3cncnc3)c3nc(N(C)C4CCN(CC)CC4)ccc32)c1F` get with Serine/threonine-protein kinase B-raf (Homo sapiens, UniProt P15056, V600E)?
9.30

----------
- Assay Target: RAF proto-oncogene serine/threonine-protein kinase (Homo sapiens, UniProt P04049)
- Sequence (P04049 whole entry): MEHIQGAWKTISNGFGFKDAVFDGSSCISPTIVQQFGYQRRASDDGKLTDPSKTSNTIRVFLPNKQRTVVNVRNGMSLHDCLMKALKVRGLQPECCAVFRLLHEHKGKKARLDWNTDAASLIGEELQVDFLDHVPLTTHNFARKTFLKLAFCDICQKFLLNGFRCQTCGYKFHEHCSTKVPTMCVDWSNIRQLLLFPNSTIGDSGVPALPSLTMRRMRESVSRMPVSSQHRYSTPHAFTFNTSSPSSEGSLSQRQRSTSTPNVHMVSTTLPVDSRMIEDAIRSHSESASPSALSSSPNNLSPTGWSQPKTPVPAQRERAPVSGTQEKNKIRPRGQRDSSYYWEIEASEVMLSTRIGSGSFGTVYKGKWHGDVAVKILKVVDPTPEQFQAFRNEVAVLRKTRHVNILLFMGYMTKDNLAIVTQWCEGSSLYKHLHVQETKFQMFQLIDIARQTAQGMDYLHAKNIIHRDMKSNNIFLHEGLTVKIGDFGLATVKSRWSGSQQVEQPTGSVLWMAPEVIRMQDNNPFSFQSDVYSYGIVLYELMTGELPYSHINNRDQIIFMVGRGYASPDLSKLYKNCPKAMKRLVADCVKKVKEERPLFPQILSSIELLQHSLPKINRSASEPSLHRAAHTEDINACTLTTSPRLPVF
- Procedure Details: Inhibition of CRAF (unknown origin) by Z'-LYTE assay
Endpoint Name: pIC50
Note on units: pIC50 is unitless, being -log10 of a concentration expressed in mol/L.

Record request: pIC50 value, item CCCS(=O)(=O)Nc1ccc(F)c(-n2cc(-c3cncnc3)c3nc(N(C)C4CCN(CC)CC4)ccc32)c1F [XP-102]
9.22

----------
- Procedure Details: Cytotoxicity against human HCC364 cells harboring p61 V600E mutant
- Format: functional, cell-based
Endpoint Name: IC50 (nM)
Could you give me the number in nM? Just the number is fine.

Give its IC50 value. Item: `O=C(c1c(F)ccc(NS(=O)(=O)N2CC[C@H](F)C2)c1F)c1c[nH]c2ncc(-c3cnc(C4CC4)nc3)cc12`
800

----------
- Assay Target: Serine/threonine-protein kinase B-raf (Homo sapiens, UniProt P15056, V600E)
Endpoint Name: pIC50
Value format note: pIC50 is -log10 of concentration (mol/L); just state the number.

Look up pIC50 with Serine/threonine-protein kinase B-raf (Homo sapiens, UniProt P15056, V600E) for this compound: `O=C1CCc2c(Oc3ccc4c(c3)[C@H]3[C@@H](O4)[C@@H]3c3nc4ccc(C(F)(F)F)cc4[nH]3)ccnc2N1`
7.19

----------
Each entry below carries its recorded pIC50.
- Assay Target: Serine/threonine-protein kinase B-raf (Homo sapiens, UniProt P15056, V600E)
- Procedure Details: biochemical
pIC50 is a log-scale quantity: -log10 of the concentration expressed in molar.

{"columns": ["Substance Smiles", "Meas Value"],
 "data": [
  ["CCN(C)S(=O)(=O)Nc1ccc(F)c(C(=O)c2c[nH]c3ncc(-c4cnc(C5CC5)nc4)cc23)c1F", 8.38]
]}

Which pIC50 reading was recorded for the compound `O=C(c1c(F)ccc(NS(=O)(=O)N2CC[C@H](F)C2)c1F)c1c[nH]c2ncc(-c3cnc(C4CC4)nc3)cc12` ?
8.42

----------
- Assay Target: Serine/threonine-protein kinase B-raf (Homo sapiens, UniProt P15056, V600E)
Endpoint Name: IC50 (nM)
Write the number in nM without appending the unit.

Please provide the recorded IC50 for `O=C1CCc2c(Oc3ccc4c(c3)[C@H]3[C@@H](O4)[C@@H]3c3nc4ccc(C(F)(F)F)cc4[nH]3)ccnc2N1` , tested on Serine/threonine-protein kinase B-raf (Homo sapiens, UniProt P15056, V600E).
23

----------
- Assay Target: Serine/threonine-protein kinase B-raf (Homo sapiens, UniProt P15056, V600E)
Recorded pIC50 values for a group of molecules are listed next.
Interpret pIC50 as the negative base-10 log of the concentration measured in mol/L.

{"columns": ["Substance Smiles", "pIC50"],
 "data": [
  ["O=C(c1c(F)ccc(NS(=O)(=O)N2CC[C@H](F)C2)c1F)c1c[nH]c2ncc(-c3cnc(C4CC4)nc3)cc12", 8.46]
]}

Attention now turns to another entry.
Quick one: pIC50 for `CCN(C)S(=O)(=O)Nc1ccc(F)c(C(=O)c2c[nH]c3ncc(-c4cnc(C5CC5)nc4)cc23)c1F` ?
7.80

----------
- Tested on: A-375
- Procedure Details: Cytotoxicity against human A375 cells harboring BRAF V600E mutant
- Assay type: functional, cell-based
Endpoint Name: IC50 (nM)
Report as a plain number; the unit nM is understood.

Request - read-out IC50 | tested on A-375 | molecule `CCN(C)S(=O)(=O)Nc1ccc(F)c(C(=O)c2c[nH]c3ncc(-c4cnc(C5CC5)nc4)cc23)c1F`
170

----------
Recorded IC50 values for a group of compounds are listed next.
- Assay Target: Serine/threonine-protein kinase B-raf (Homo sapiens, UniProt P15056, V600E)
- Procedure Details: Inhibition of BRAF V600E mutant in human A375 cells assessed as reduction in ERK phosphorylation
- Format: cell-based
Form field: result (number plus unit)

{"columns": ["Substance Smiles", "Assay Target", "Meas Value"],
 "data": [
  ["CC(C)(C)c1cc(NC(=O)Nc2ccc(Oc3ccnc4[nH]c(=O)cnc34)cc2F)n(-c2ccccc2)n1", "Serine/threonine-protein kinase B-raf (Homo sapiens, UniProt P15056, V600E)", "5 nM"]
]}

# ---- query compound ----
Would you mind telling me what IC50 value was observed for `CSc1cc(Oc2ccnc3[nH]c(=O)cnc23)ccc1NC(=O)Nc1cc(C(C)(C)C)nn1-c1ccccc1` ?
5 nM

----------
- Assay Target: Serine/threonine-protein kinase B-raf (Homo sapiens, UniProt P15056, V600E)
- Procedure Details: Inhibition of BRAF V600E mutant (unknown origin) by Z'-LYTE assay
Endpoint Name: pIC50
On this scale, pIC50 is minus log10 of a concentration expressed in M (mol/L).

Field: pIC50 (Serine/threonine-protein kinase B-raf (Homo sapiens, UniProt P15056, V600E)). Entry: `CCCS(=O)(=O)Nc1ccc(F)c(-n2cc(-c3cncnc3)c3nc(N(C)C4CCN(CC)CC4)ccc32)c1F`
9.40

----------
- Test system: WM 266-4
- Procedure Details: Cytotoxicity in human WM266.4 cells after 72 hrs by CellTiter-Glo assay
- Format: functional, cell-based
- Experimental Parameters: WM 266-4, 72 h
Endpoint Name: pIC50
Quick note: pIC50 means taking -log10 of the concentration in moles per liter.

# lookup: pIC50 of `CC(C)(C)c1cc(NC(=O)Nc2ccc(Oc3ccnc4[nH]c(=O)cnc34)cc2F)n(-c2ccccc2)n1`
7.82

----------
- Assay Target: RAF proto-oncogene serine/threonine-protein kinase (Homo sapiens, UniProt P04049)
- Procedure Details: Inhibition of CRAF (unknown origin)
Endpoint Name: IC50 (nM)
Dear colleague, please return just the value in nM, with no unit written.

Please report the recorded IC50 for `O=C1CCc2c(Oc3ccc4c(c3)[C@H]3[C@@H](O4)[C@@H]3c3nc4ccc(C(F)(F)F)cc4[nH]3)ccnc2N1` .
7

----------
- Assay Target: Serine/threonine-protein kinase B-raf (Homo sapiens, UniProt P15056)
- Sequence (P15056 whole entry): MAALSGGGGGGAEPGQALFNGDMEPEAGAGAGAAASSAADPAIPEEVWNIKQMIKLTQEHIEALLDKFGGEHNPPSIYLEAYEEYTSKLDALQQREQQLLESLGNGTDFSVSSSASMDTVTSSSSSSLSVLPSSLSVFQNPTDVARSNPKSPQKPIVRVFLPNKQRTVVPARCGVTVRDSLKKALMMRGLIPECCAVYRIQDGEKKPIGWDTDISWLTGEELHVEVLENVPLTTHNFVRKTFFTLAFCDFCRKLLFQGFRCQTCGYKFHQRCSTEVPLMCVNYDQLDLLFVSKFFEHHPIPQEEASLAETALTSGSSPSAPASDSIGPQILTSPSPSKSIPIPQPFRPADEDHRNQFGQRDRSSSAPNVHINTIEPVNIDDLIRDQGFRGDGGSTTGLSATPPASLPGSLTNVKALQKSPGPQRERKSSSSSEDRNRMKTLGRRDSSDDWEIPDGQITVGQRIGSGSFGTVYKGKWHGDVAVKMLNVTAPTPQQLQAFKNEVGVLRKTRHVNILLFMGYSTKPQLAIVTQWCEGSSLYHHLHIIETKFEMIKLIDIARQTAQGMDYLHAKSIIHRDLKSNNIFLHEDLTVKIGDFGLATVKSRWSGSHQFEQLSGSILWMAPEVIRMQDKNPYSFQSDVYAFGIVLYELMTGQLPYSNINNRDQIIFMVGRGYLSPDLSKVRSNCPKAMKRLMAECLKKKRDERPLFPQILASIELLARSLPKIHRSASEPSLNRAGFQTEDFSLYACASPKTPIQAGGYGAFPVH
Endpoint Name: IC50 (nM)
The figure you give is taken to be in nM; do not add the unit.

Quick one: IC50 for `O=C1CCc2c(Oc3ccc4c(c3)[C@H]3[C@@H](O4)[C@@H]3c3nc4ccc(C(F)(F)F)cc4[nH]3)ccnc2N1` ?
32
